protocol.text: Primary fluorescence-based thiol-reactive (MSTI) qHTS assay for identification of artifact compounds. (AID 1845221);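 further: thiol-reactive compounds lower the probe fluorescence signal; nearly all actives have a fitted effect of over 65% in size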
measurement.setup: MSTI thiol-reactivity probe, 1 h; series mostly up to 53.8 µM
Source text: PI: Alexander Tropsha Ph.D. UNC Eshelman School of Pharmacy University of North Carolina, Chapel Hill, North Carolina Hits from high-throughput screening (HTS) of chemical libraries are often false positives due to their interference with the assay detection technology. […] Using these curated datasets, we developed and validated several Quantitative Structure-Interference Relationship (QSIR) models to predict nuisance behavior. […]
Records with an inconclusive call do not appear. The source made the active and inactive calls. The call rests on the fitted dose curve; in most records, active means well fitted inhibition curve with a large enough effect; inconclusive means small, poorly fitted or top-dose-only effect; inactive means no such curve, though single readings can be large or run the other way.
Choose the fitting class; nothing outside 1.0 (active), 0.0 (inactive) is accepted.

compound	category
COC(=O)CCC1(C)C(C(C)(C)O)C(O)CC2(C)Oc3c(C)c4c(c(OC)c3CC21)C(=O)OC4 (stereo not drawn)	0.0
CC1(C)CC[C@]2(C(=O)O)CC[C@]3(C)C(=CCC4[C@@]5(C)CC[C@H](O)C(C)(C)C5CC[C@]43C)C2C1 (stereo partly drawn)	0.0

Shift focus to the following entry.
Q: Recorded call for `Cc1cc(-n2c(=O)[nH]c(=O)n(C)c2=O)ccc1Oc1ccc(SC(F)(F)F)cc1` ?
Ans: 0.0
